Target: human CXCR4 (on cells, viral lipoparticles or membrane extracts) (human, UniProt P61073 1-352)
Sequence (P61073 whole entry): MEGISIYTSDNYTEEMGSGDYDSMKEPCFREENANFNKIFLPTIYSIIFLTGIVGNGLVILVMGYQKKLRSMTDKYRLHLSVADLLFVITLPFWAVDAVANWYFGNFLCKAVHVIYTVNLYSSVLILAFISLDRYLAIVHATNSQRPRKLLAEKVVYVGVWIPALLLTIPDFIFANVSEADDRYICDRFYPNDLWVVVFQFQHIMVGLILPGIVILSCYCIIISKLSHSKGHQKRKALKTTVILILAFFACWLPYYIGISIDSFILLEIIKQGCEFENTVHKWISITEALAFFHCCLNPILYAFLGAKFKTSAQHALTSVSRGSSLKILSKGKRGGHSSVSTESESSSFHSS
Assay: cell-based or functional assay
Binarize IC50, CXCL-12 chemotaxis, Jurkat E6-1 at 90 nM; below is rule met, at or above is rule not met.

Criterion: IC50, CXCL-12 chemotaxis, Jurkat E6-1 strictly below 90 nM. Is it met by 281F12-35GS-55A01 (bispecific antibody, also called CXCR4#2-CD123#2; 281F12-55A01) EVQLVESGGGLVQAGDSLRLSCAASGRAFSRYAMGWFRQAPGKEREFVAAIGWGPSKTNYADSVKGRFTISRDNAKNTVYLQMNTLKPEDTAVYSCAAKFVNTDSTWSRSEMYTYWGQGTLVTVSSGGGGSGGGGSGGGGSGGGGSGGGGSGGGGSGGGGSEVQLVESGGGSVQAGGSLRLSCTTSGRALNMYVMGWFRQAPGNEREFVAATSSSGGSTSYPDSVKGRFTISRDNAKNTVYLQMNSLKPEDTAAYRCAASPYVSTPTMNILEEYRYWGQGTLVTVSS ?
rule met

Criterion: IC50, CXCL-12 chemotaxis, Jurkat E6-1 strictly below 90 nM. Is it met by 281F12 (VHH, also called CXCR4#2; 4CXCR281F12-FLAG3-HIS6) VHH: EVQLVESGGGLVQAGDSLRLSCAASGRAFSRYAMGWFRQAPGKEREFVAAIGWGPSKTNYADSVKGRFTISRDNAKNTVYLQMNTLKPEDTAVYSCAAKFVNTDSTWSRSEMYTYWGQGTLVTVSS ?
rule not met

Criterion: IC50, CXCL-12 chemotaxis, Jurkat E6-1 strictly below 90 nM. Is it met by 14D09 (VHH, also called CXCR4#1; 14D9) VHH: EVQLVESGGGLVQAGGSLRLSCVASGISSSKRNMGWYRQAPGKQRESVATISSGGNKDYTDAVKDRFTISRDTTKNTVYLQMNSLKPEDTAVYYCKIEAGTGWATRRGYTYWGQGTLVTVSS ?
rule met

Criterion: IC50, CXCL-12 chemotaxis, Jurkat E6-1 strictly below 90 nM. Is it met by 55A01-35GS-14D09 (bispecific antibody, FLAG3-His6 also made; also called CD123#2-CXCR4#1; 55A01-14D09) EVQLVESGGGSVQAGGSLRLSCTTSGRALNMYVMGWFRQAPGNEREFVAATSSSGGSTSYPDSVKGRFTISRDNAKNTVYLQMNSLKPEDTAAYRCAASPYVSTPTMNILEEYRYWGQGTLVTVSSGGGGSGGGGSGGGGSGGGGSGGGGSGGGGSGGGGSEVQLVESGGGLVQAGGSLRLSCVASGISSSKRNMGWYRQAPGKQRESVATISSGGNKDYTDAVKDRFTISRDTTKNTVYLQMNSLKPEDTAVYYCKIEAGTGWATRRGYTYWGQGTLVTVSS ?
rule met

Criterion: IC50, CXCL-12 chemotaxis, Jurkat E6-1 strictly below 90 nM. Is it met by 281F12-35GS-57A07 (bispecific antibody, FLAG3-His6 also made; also called CXCR4#2-CD123#1; 281F12-57A07) EVQLVESGGGLVQAGDSLRLSCAASGRAFSRYAMGWFRQAPGKEREFVAAIGWGPSKTNYADSVKGRFTISRDNAKNTVYLQMNTLKPEDTAVYSCAAKFVNTDSTWSRSEMYTYWGQGTLVTVSSGGGGSGGGGSGGGGSGGGGSGGGGSGGGGSGGGGSEVQLVESGGGLVQAGGSLRLSCAASGSIFSGNVMGWYRRQAPGKEREWVAAIASGGSIYYRDSVKGRFTISRDNAKNTVYLQMNSLKPEDTAVYYCNSHPPTLPYWGQGTLVTVSS ?
rule met

Criterion: IC50, CXCL-12 chemotaxis, Jurkat E6-1 strictly below 90 nM. Is it met by 57A07-35GS-14D09 (bispecific antibody, FLAG3-His6 also made; also called CD123#1-CXCR4#1; 57A07-14D09) EVQLVESGGGLVQAGGSLRLSCAASGSIFSGNVMGWYRRQAPGKEREWVAAIASGGSIYYRDSVKGRFTISRDNAKNTVYLQMNSLKPEDTAVYYCNSHPPTLPYWGQGTLVTVSSGGGGSGGGGSGGGGSGGGGSGGGGSGGGGSGGGGSEVQLVESGGGLVQAGGSLRLSCVASGISSSKRNMGWYRQAPGKQRESVATISSGGNKDYTDAVKDRFTISRDTTKNTVYLQMNSLKPEDTAVYYCKIEAGTGWATRRGYTYWGQGTLVTVSS ?
rule not met

Criterion: IC50, CXCL-12 chemotaxis, Jurkat E6-1 strictly below 90 nM. Is it met by 14D09-35GS-57A07 (bispecific antibody, also made with FLAG3-His6 in Pichia; also called CXCR4#1-CD123#1; 14D09-57A07) EVQLVESGGGLVQAGGSLRLSCVASGISSSKRNMGWYRQAPGKQRESVATISSGGNKDYTDAVKDRFTISRDTTKNTVYLQMNSLKPEDTAVYYCKIEAGTGWATRRGYTYWGQGTLVTVSSGGGGSGGGGSGGGGSGGGGSGGGGSGGGGSGGGGSEVQLVESGGGLVQAGGSLRLSCAASGSIFSGNVMGWYRRQAPGKEREWVAAIASGGSIYYRDSVKGRFTISRDNAKNTVYLQMNSLKPEDTAVYYCNSHPPTLPYWGQGTLVTVSS ?
rule met

Each recorded value in this set is attributed to patent US20160251440A1.
